meta.source: ChEMBL document CHEMBL1159077

Target: Poly [ADP-ribose] polymerase 1 (Homo sapiens, UniProt P09874)
Sequence (P09874 whole entry): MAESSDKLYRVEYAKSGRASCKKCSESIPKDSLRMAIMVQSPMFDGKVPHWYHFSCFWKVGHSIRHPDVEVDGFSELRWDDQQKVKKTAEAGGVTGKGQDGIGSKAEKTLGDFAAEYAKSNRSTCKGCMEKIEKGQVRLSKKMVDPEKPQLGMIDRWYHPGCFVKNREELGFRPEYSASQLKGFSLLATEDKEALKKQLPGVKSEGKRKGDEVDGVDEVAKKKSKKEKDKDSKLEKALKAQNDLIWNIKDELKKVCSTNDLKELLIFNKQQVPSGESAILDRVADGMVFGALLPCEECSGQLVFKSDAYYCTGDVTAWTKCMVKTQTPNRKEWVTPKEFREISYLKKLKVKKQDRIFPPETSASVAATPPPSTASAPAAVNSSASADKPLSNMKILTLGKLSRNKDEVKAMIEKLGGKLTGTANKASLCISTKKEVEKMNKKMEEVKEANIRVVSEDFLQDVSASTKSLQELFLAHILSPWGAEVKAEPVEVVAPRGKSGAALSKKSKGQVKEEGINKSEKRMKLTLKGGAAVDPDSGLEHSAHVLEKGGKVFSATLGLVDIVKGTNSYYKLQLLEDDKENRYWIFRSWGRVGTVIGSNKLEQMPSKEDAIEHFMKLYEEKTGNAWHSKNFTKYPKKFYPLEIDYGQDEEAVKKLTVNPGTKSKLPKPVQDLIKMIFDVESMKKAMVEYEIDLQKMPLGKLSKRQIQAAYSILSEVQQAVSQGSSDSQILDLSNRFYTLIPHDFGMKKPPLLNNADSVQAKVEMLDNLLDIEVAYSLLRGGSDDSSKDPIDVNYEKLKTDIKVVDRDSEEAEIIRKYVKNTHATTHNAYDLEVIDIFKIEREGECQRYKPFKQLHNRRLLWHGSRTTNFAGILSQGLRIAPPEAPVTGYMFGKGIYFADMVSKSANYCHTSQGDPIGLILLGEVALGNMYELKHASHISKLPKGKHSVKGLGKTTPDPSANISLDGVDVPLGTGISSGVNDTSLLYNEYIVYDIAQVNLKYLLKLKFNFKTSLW
Assay: Inhibition of PARP1 in human C41 cells
PROPERTY LABEL: EC50 (nM)

NC(=O)c1cccc2c1C(=O)N(c1ccc(CN3CCCC3)cc1)C2 ... 53
NC(=O)c1cccc2c1C(=O)N(CC1CCCN1)C2 (centres undefined) ... 374
CN(C)c1ccc(N2Cc3cccc(C(N)=O)c3C2=O)cc1 ... 372
CN1CCN(c2ccc(N3Cc4cccc(C(N)=O)c4C3=O)cc2)CC1 ... 22
NC(=O)c1cccc2c1C(=O)N(C1CCNC1)C2 (centres undefined) ... 160
NC(=O)c1cccc2c1C(=O)N(c1ccc(C3CCNCC3)cc1)C2 ... 120
NC(=O)c1cccc2c1C(=O)N(C1CCNCC1)C2 ... 51
